Source: patent US10851099B2

studyTarget: recombinant human arginase 1 (Homo sapiens)
assaySummary: Human arginase inhibition assay (colorimetric urea detection), arginase 1
reportedConditions: IC50 class, hydrochloride salts, 1 h at 37° C., pH 7.4, 10 mM L-arginine, 200 μM MnCl2, read-out: Activity Class (ARG I)
Structures can show the parent of a compound that is named as a salt.
measurementType: IC50

The measured IC50 associated with C[C@H](N)C(=O)N1C[C@H](CCB(O)O)C[C@@](N)(C(=O)O)C1 [Example 2, dihydrochloride] reads > 10000 nM

---

// reported IC50 per item
studyTarget: recombinant human arginase 1 (Homo sapiens)
assaySummary: Human arginase inhibition assay (colorimetric urea detection), arginase 1
reportedConditions: IC50 class, hydrochloride salts, 1 h at 37° C., pH 7.4, 10 mM L-arginine, 200 μM MnCl2, read-out: Activity Class (ARG I)
Structures can show the parent of a compound that is named as a salt.

# IC50 (molecule: N[C@@H](CS)C(=O)N1C[C@@H](CCB(O)O)C[C@](N)(C(=O)O)C1 [Example 19, dihydrochloride] ) is 500 to 999 nM

---

studyTarget: recombinant human arginase 1 (Homo sapiens)
Sequence (P05089 1-322): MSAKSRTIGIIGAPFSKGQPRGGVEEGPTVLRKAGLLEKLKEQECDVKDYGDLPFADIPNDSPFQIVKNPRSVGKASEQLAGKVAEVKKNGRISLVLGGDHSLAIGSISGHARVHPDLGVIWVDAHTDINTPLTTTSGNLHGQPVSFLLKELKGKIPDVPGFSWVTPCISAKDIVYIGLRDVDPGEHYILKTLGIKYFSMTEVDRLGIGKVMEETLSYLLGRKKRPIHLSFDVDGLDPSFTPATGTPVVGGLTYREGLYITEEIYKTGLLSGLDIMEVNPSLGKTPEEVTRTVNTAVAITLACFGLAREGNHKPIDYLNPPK
assaySummary: Human arginase inhibition assay (colorimetric urea detection), arginase 1
reportedConditions: IC50 class, hydrochloride salts, 1 h at 37° C., pH 7.4, 10 mM L-arginine, 200 μM MnCl2, read-out: Activity Class (ARG I)
Counter-ions that a name gives are not always drawn.
Collected IC50 values appear next to each entry.

compound | endpointValue
C[C@H](N)C(=O)N1C[C@@H](CCB(O)O)C[C@](N)(C(=O)O)C1 [Example 1, dihydrochloride] | 250 to 499 nM
N=C(N)NCCC[C@H](N)C(=O)N1C[C@@H](CCB2OC(=O)CC(CC(=O)O)(C(=O)O)O2)C[C@](N)(C(=O)O)C1 (stereo partly drawn) [Example 29, trihydrochloride] | 1 to 249 nM
C[C@@H]1N(C(=O)[C@@H](N)CCCNC(=N)N)C[C@@H](CCB(O)O)C[C@]1(N)C(=O)O [Example 31, trihydrochloride] | 250 to 499 nM
CCC[C@H](N)C(=O)N1C[C@@H](CCB(O)O)C[C@](N)(C(=O)O)C1 [Example 25, dihydrochloride] | 250 to 499 nM

// sample NC(=O)CC[C@H](N)C(=O)N1C[C@@H](CCB(O)O)C[C@](N)(C(=O)O)C1 [Example 16, dihydrochloride] , its IC50 was 250 to 499 nM

Query N[C@@H](CO)C(=O)N1C[C@@H](CCB(O)O)C[C@](N)(C(=O)O)C1 [Example 6, dihydrochloride] yields IC50 of 1 to 249 nM
